Target: Muscarinic acetylcholine receptor M3 (Cavia porcellus)
Sequence (Q8VH26 whole entry): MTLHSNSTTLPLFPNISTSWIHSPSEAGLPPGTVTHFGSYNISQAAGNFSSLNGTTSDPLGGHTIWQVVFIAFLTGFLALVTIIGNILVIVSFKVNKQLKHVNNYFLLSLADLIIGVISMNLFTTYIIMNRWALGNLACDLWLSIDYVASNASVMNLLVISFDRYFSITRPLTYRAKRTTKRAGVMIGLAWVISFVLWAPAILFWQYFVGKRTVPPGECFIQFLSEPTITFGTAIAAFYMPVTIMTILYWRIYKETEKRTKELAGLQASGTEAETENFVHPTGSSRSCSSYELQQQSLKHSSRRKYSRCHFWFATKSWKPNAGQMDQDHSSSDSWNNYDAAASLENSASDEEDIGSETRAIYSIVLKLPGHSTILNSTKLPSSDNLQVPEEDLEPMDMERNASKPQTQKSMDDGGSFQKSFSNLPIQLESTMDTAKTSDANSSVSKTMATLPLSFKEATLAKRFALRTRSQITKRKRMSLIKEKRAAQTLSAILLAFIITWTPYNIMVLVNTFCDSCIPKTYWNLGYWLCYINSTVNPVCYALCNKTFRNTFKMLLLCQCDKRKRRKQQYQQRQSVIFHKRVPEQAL
Experiment: Antagonistic activity measured in isolated guinea pig […] (M3 receptor)
Type: functional, tissue-based
Details: read-out: pA2 (converted)
Reported Kb by item:
# output: bare number, implied unit µM

SMILES STRING | READOUT LABEL | OBS VALUE
CN(CCCCCCCCN(C)CCCCCCNCC(=O)N1c2ccccc2C(=O)Nc2cccnc21)CCCCCCNCC(=O)N1c2ccccc2C(=O)Nc2cccnc21 | Kb | 0.126
CN(CCCCCCCCN(C)CCCCCCN(CC(=O)N1c2ccccc2C(=O)Nc2cccnc21)CC(=O)N1c2ccccc2C(=O)Nc2cccnc21)CCCCCCNCC(=O)N1c2ccccc2C(=O)Nc2cccnc21 | Kb | 0.282
CCN(CC)CCCCC1CCN(CC(=O)N2c3ccccc3C(=O)Nc3cccnc32)CC1 | Kb | 0.251

**Q:** Any idea what Kb was measured for COc1ccccc1CNCCCCCCN(C)CCCCCCCCN(C)CCCCCCNCc1ccccc1OC ?
**A:** 0.603

**Q:** Try the compound COc1ccccc1CNCCCCCCNCCCCCCCCNCCCCCCNCc1ccccc1OC
**A:** 0.479
